Target: S1P1 (Homo sapiens, UniProt P21453)
Sequence (P21453 whole entry, species assumed): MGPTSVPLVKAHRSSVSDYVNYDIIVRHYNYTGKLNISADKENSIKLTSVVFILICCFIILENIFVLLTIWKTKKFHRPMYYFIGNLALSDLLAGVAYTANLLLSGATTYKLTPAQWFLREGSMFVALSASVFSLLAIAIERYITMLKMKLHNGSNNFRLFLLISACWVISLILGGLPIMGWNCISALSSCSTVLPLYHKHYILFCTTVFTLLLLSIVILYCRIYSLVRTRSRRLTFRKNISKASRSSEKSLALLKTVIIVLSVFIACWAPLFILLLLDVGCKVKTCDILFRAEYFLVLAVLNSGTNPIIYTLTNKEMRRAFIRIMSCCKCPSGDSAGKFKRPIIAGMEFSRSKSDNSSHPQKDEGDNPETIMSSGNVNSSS
Experiment: 35S-GTPγS binding, S1P1 membranes
Conditions: membranes from CHO cells expressing S1P1; 60 min 30° C.
measurement.kind: EC50 (nM)

Some entries whose results are on file:
COCc1cc(-c2nc(-c3cccc(S(C)(=O)=O)c3)no2)ccc1-c1ccccc1C; 1
COC(=O)c1ccc(-c2noc(-c3ccc(N(C)C)c(NS(C)(=O)=O)c3)n2)cc1F; 481
COCCNC(=O)c1cccc(-c2noc(-c3ccc(-c4ccccc4C)c(COC)c3)n2)c1; 16
COCc1cc(-c2nc(-c3cccc(C(=O)NCCCC(=O)O)c3)no2)ccc1-c1ccccc1C; 9.6
COc1cc(-c2nc(-c3ccc(S(N)(=O)=O)cc3)no2)ccc1-c1cscc1C; 2.9
CC1CCCCN1c1ccc(-c2nc(-c3ccc(C(=O)O)c(Cl)c3)no2)cc1NS(C)(=O)=O (stereo not shown); 57
Cc1ccccc1-c1ccc(-c2nc(-c3ccc(C(=O)O)c(F)c3)no2)cc1O; 7700
Cc1ccccc1-c1ccc(-c2nc(-c3ccc(C(=O)NCCC(=O)O)c(F)c3)no2)cc1C; 53

1: COCc1cc(-c2nc(-c3ccc(C(=O)NC(C)(C)C(=O)O)c(F)c3)no2)ccc1-c1ccccc1C
2: Cc1ccccc1-c1ccc(-c2nc(-c3ccc(C(=O)O)c(F)c3)no2)cc1COCC1CC1
3: COCc1cc(-c2nc(-c3cccc(C(=O)NCCNC(C)=O)c3)no2)ccc1-c1ccccc1C
4: Cc1ccccc1-c1ccc(-c2nc(-c3ccc(C(=O)O)c(F)c3)no2)cc1COC(C)C
5: CCOC(=O)C1(NC(=O)c2ccc(-c3noc(-c4ccc(-c5ccccc5C)c(COC)c4)n3)cc2F)CC1
Task item: # rank by EC50, ascending (min first) // respond by listing labels in the order requested
Reply: 3, 5, 1, 4, 2
(3: 3.3 nM, 5: 7 nM, 1: 40 nM, 4: 286 nM, 2: 2240 nM)

###

Target: S1P1 (Homo sapiens, UniProt P21453)
Assay: 35S-GTPγS binding, S1P1 membranes
Conditions: membranes from CHO cells expressing S1P1; 60 min 30° C.
Description: Receptor binding assay: Membranes were prepared from CHO cells expressing S1P1 or S1P3 for use in ligand and 355-GTPγS binding studies. […] Binding was performed for 60 min at RT on a shaker and bound radioactivity was measured on a PerkinElmer 1450 MicroBeta counter. Specific binding was calculated by subtracting remaining radioactivity in the presence of 1000-fold excess of unlabeled S1P. Binding data were analyzed using the GraphPad Prism program. […]
pEC50: −log10 of the molar value.
measurement.kind: pEC50

COCc1cc(-c2nc(-c3ccc(C(=O)O)c(F)c3)no2)ccc1-c1cc(F)ccc1OC [Example 89]; 6.34

I: COCc1cc(-c2nc(-c3cc(F)c(C(=O)O)cc3OC)no2)ccc1-c1ccccc1C [Example 112]
II: COCc1cc(-c2nc(-c3cccc(CNCCC(=O)OC(C)(C)C)c3)no2)ccc1-c1ccccc1C [Example 153]
III: Cc1ccccc1-c1ccc(-c2nc(-c3ccc(C(=O)O)c(F)c3)no2)cc1 [Example 5]
Task item: Please list these compounds in decreasing order of pEC50. Answer by listing the labels in the requested order.
Reply: II, I, III
(II: 7.60, I: 6.99, III: 5.29)

The reported numbers originate from patent US8202865B2.
